Test: Solubility of compound G (amorphous) and its monomaleate salt (crystalline) in water, buffers and solvents
Format: physicochemical
Conditions: 25 mM Na citrate buffer, pH 5.8, aqueous buffer, 25 mM Na Citrate, pH 5.8; amorphous; read-out: Solubility
quantity: solubility (mg/mL)
Give bare numbers, in mg/mL.

Reported solubility for COc1ccc([C@@H](O)[C@H](NC(=O)[C@H](C)NC(=O)CN2CCOCC2)C(=O)N[C@@H](CC2=CCCC2)C(=O)[C@@]2(C)CO2)cc1 : what is it?
11.2

---

Test: Solubility of compound G (amorphous) and its monomaleate salt (crystalline) in water, buffers and solvents
Format: physicochemical
Conditions: 10% PEG 400, aqueous with cosolvent or surfactant or cyclodextrin, PEG 400, 10%; amorphous; read-out: Solubility
quantity: solubility (mg/mL)
Numbers only, in mg/mL.

Reported solubility for COc1ccc([C@@H](O)[C@H](NC(=O)[C@H](C)NC(=O)CN2CCOCC2)C(=O)N[C@@H](CC2=CCCC2)C(=O)[C@@]2(C)CO2)cc1 [compound G] : what is it?
11.8

---

Assay: Solubility of compound G (amorphous) and its monomaleate salt (crystalline) in water, buffers and solvents
Assay type: physicochemical
Conditions: methyl tert-butyl ether, organic solvent or mixture, Methyl tert-butyl ether (MTBE); crystalline; read-out: Solubility
Where a name gives a salt, the structure may show the parent alone.
quantity: solubility (mg/mL)
Numbers only, in mg/mL.

Reported solubility for COc1ccc([C@@H](O)[C@H](NC(=O)[C@H](C)NC(=O)CN2CCOCC2)C(=O)N[C@@H](CC2=CCCC2)C(=O)[C@@]2(C)CO2)cc1 [monomaleate salt of compound G] : what is it?
0.17

---

Assay: Solubility of compound G (amorphous) and its monomaleate salt (crystalline) in water, buffers and solvents
Format: physicochemical
Settings: 25 mM Na citrate buffer, pH 5.2, aqueous buffer, 25 mM Na Citrate, pH 5.2; amorphous; read-out: Solubility
quantity: solubility (mg/mL)
Give bare numbers, in mg/mL.

Reported solubility for COc1ccc([C@@H](O)[C@H](NC(=O)[C@H](C)NC(=O)CN2CCOCC2)C(=O)N[C@@H](CC2=CCCC2)C(=O)[C@@]2(C)CO2)cc1 [compound G] : what is it?
24.8

---

Experiment: Solubility of compound G (amorphous) and its monomaleate salt (crystalline) in water, buffers and solvents
Format: physicochemical
Settings: 25 mM Na citrate buffer, pH 5.1, aqueous buffer, 25 mM Na Citrate, pH 5.1; amorphous; read-out: Solubility
quantity: solubility (mg/mL)
Numbers only, in mg/mL.

Reported solubility for COc1ccc([C@@H](O)[C@H](NC(=O)[C@H](C)NC(=O)CN2CCOCC2)C(=O)N[C@@H](CC2=CCCC2)C(=O)[C@@]2(C)CO2)cc1 : what is it?
32

---

Test: pKa of the monomaleate salt
Assay type: physicochemical
Counter-ions that a name gives are not always drawn.
quantity: pKa
One number for each entry.

Reported pKa for COc1ccc([C@@H](O)[C@H](NC(=O)[C@H](C)NC(=O)CN2CCOCC2)C(=O)N[C@@H](CC2=CCCC2)C(=O)[C@@]2(C)CO2)cc1 [monomaleate salt of compound G] : what is it?
5

---

Assay: Solubility of compound G (amorphous) and its monomaleate salt (crystalline) in water, buffers and solvents
Assay type: physicochemical
Settings: dichloromethane, organic solvent or mixture, Dichloromethane (DCM); crystalline; read-out: Solubility
Structures can show the parent of a compound that is named as a salt.
quantity: solubility

Reported solubility for COc1ccc([C@@H](O)[C@H](NC(=O)[C@H](C)NC(=O)CN2CCOCC2)C(=O)N[C@@H](CC2=CCCC2)C(=O)[C@@]2(C)CO2)cc1 [monomaleate salt of compound G] : what is it?
210 µg/mL

---

Experiment: Solubility of compound G (amorphous) and its monomaleate salt (crystalline) in water, buffers and solvents
Assay type: physicochemical
Conditions: 0.9% saline, pH 7.6, saline or isotonic, 0.9% saline, pH 7.6; amorphous; read-out: Solubility
quantity: solubility (µg/mL)
Answers are plain numbers, in µg/mL.

Reported solubility for COc1ccc([C@@H](O)[C@H](NC(=O)[C@H](C)NC(=O)CN2CCOCC2)C(=O)N[C@@H](CC2=CCCC2)C(=O)[C@@]2(C)CO2)cc1 [compound G] : what is it?
9400

---

Test: Solubility of compound G (amorphous) and its monomaleate salt (crystalline) in water, buffers and solvents
Type: physicochemical
Details: acetonitrile, organic solvent or mixture, Acetonitrile (ACN); crystalline; read-out: Solubility
Where a name gives a salt, the structure may show the parent alone.
quantity: solubility (µg/mL)
Give bare numbers, in µg/mL.

Reported solubility for COc1ccc([C@@H](O)[C@H](NC(=O)[C@H](C)NC(=O)CN2CCOCC2)C(=O)N[C@@H](CC2=CCCC2)C(=O)[C@@]2(C)CO2)cc1 [monomaleate salt of compound G] : what is it?
1300

---

Assay: Solubility of compound G (amorphous) and its monomaleate salt (crystalline) in water, buffers and solvents
Format: physicochemical
Details: ethyl acetate, organic solvent or mixture, Ethyl acetate (EA); crystalline; read-out: Solubility
Where a name gives a salt, the structure may show the parent alone.
quantity: solubility (µg/mL)
Numbers only, in µg/mL.

Reported solubility for COc1ccc([C@@H](O)[C@H](NC(=O)[C@H](C)NC(=O)CN2CCOCC2)C(=O)N[C@@H](CC2=CCCC2)C(=O)[C@@]2(C)CO2)cc1 [monomaleate salt of compound G] : what is it?
470

---

Assay: Solubility of compound G (amorphous) and its monomaleate salt (crystalline) in water, buffers and solvents
Assay type: physicochemical
Settings: toluene, organic solvent or mixture, Toluene; crystalline; read-out: Solubility
Counter-ions that a name gives are not always drawn.
quantity: solubility

Reported solubility for COc1ccc([C@@H](O)[C@H](NC(=O)[C@H](C)NC(=O)CN2CCOCC2)C(=O)N[C@@H](CC2=CCCC2)C(=O)[C@@]2(C)CO2)cc1 [monomaleate salt of compound G] : what is it?
20 µg/mL

---

Assay: Solubility of compound G (amorphous) and its monomaleate salt (crystalline) in water, buffers and solvents
Format: physicochemical
Details: tetrahydrofuran, organic solvent or mixture, Tetrahydrofuran (THF); crystalline; read-out: Solubility
Where a name gives a salt, the structure may show the parent alone.
quantity: solubility (µg/mL)
Answers are plain numbers, in µg/mL.

Reported solubility for COc1ccc([C@@H](O)[C@H](NC(=O)[C@H](C)NC(=O)CN2CCOCC2)C(=O)N[C@@H](CC2=CCCC2)C(=O)[C@@]2(C)CO2)cc1 [monomaleate salt of compound G] : what is it?
1960

---

Assay: Solubility of compound G (amorphous) and its monomaleate salt (crystalline) in water, buffers and solvents
Type: physicochemical
Conditions: 33% NMP, aqueous with cosolvent or surfactant or cyclodextrin, NMP, 33%; amorphous; read-out: Solubility
quantity: solubility

Reported solubility for COc1ccc([C@@H](O)[C@H](NC(=O)[C@H](C)NC(=O)CN2CCOCC2)C(=O)N[C@@H](CC2=CCCC2)C(=O)[C@@]2(C)CO2)cc1 [compound G] : what is it?
> 100 mg/mL

---

Test: Solubility of compound G (amorphous) and its monomaleate salt (crystalline) in water, buffers and solvents
Type: physicochemical
Settings: water, pH 7.4, water, Water, pH 7.4; amorphous; read-out: Solubility
quantity: solubility (µg/mL)
Give bare numbers, in µg/mL.

Reported solubility for COc1ccc([C@@H](O)[C@H](NC(=O)[C@H](C)NC(=O)CN2CCOCC2)C(=O)N[C@@H](CC2=CCCC2)C(=O)[C@@]2(C)CO2)cc1 : what is it?
8900

---

Test: Solubility of compound G (amorphous) and its monomaleate salt (crystalline) in water, buffers and solvents
Format: physicochemical
Conditions: 2-methyltetrahydrofuran, organic solvent or mixture, 2-Methyltetrahydrofuran; crystalline; read-out: Solubility
Where a name gives a salt, the structure may show the parent alone.
quantity: solubility

Reported solubility for COc1ccc([C@@H](O)[C@H](NC(=O)[C@H](C)NC(=O)CN2CCOCC2)C(=O)N[C@@H](CC2=CCCC2)C(=O)[C@@]2(C)CO2)cc1 [monomaleate salt of compound G] : what is it?
1760 µg/mL

---

Experiment: Solubility of compound G (amorphous) and its monomaleate salt (crystalline) in water, buffers and solvents
Format: physicochemical
Conditions: 100% NMP, organic solvent or mixture, NMP, 100%; amorphous; read-out: Solubility
quantity: solubility

Reported solubility for COc1ccc([C@@H](O)[C@H](NC(=O)[C@H](C)NC(=O)CN2CCOCC2)C(=O)N[C@@H](CC2=CCCC2)C(=O)[C@@]2(C)CO2)cc1 : what is it?
> 100 mg/mL

---

Assay: Solubility of compound G (amorphous) and its monomaleate salt (crystalline) in water, buffers and solvents
Format: physicochemical
Settings: water, ambient temperature (e.g., 20° C. to 25° C.); read-out: solubility in water
Structures can show the parent of a compound that is named as a salt.
quantity: solubility

Reported solubility for COc1ccc([C@@H](O)[C@H](NC(=O)[C@H](C)NC(=O)CN2CCOCC2)C(=O)N[C@@H](CC2=CCCC2)C(=O)[C@@]2(C)CO2)cc1 [monomaleate salt of compound G] : what is it?
> 100 mg/mL

All values here come from patent US10836756B2.
